Values were extracted from patent EP1873150A1.

- target.of.assay: ORL-1 receptor (Homo sapiens)
- Sequence (P41146 whole entry): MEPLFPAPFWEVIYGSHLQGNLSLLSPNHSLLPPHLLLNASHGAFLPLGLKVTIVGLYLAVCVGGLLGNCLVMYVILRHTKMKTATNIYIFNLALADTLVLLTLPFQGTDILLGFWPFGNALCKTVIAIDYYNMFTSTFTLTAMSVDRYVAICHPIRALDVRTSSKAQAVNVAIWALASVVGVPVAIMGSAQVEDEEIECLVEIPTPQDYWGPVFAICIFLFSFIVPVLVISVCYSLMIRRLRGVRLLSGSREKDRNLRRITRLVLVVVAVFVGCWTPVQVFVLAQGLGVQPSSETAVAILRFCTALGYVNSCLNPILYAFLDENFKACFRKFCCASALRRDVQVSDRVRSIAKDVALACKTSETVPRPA
- experimental.details: ORL-1 receptor binding studies, radioligand [3H]-AcRYYRWK-NH2
In this section, each of the compounds is paired with its reported Ki.

Cc1c(CN2CCC(c3c(F)cccc3Cl)CC2)c2ccccc2n1CC(=O)NC1CCN(C)CC1 ... 5.5 nM

Now consider a different compound.
Query string: Give its Ki value. Item: O=C(Cn1c(-c2ccccc2)c(CN2CCC(c3c(F)cccc3F)CC2)c2ccccc21)N1CCOCC1
Result string: 18 nM
